Test system: Fibrinogen (Alexa647-labelled)
ASSAY NOTES: fibrinogen binders on compound microarrays, profiling panel, artefact control for SMM control-protein annotation, biochemical, small-molecule microarray, 635/667 nm fluorescence (AID 1131);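 further: z-score merges 667 nm fluorescence with per-spot signal-to-noise over triplicate slides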
CONDITION INFO: fibrinogen-A647 binding fluorescence, higher = more signal
I would appreciate it if you labelled entries true when composite z-score is -0.02 or higher, otherwise false.

COCCOC(=O)N1C(=O)[C@@]2(c3ccccc31)[C@H](c1ccc(OCCO)cc1)N1[C@H](c3ccccc3)[C@H](c3ccccc3)OC(=O)[C@H]1[C@@H]2C(=O)N1CCCCCCC1 | true
CN(C)CCCCNC(=O)[C@H]1C[C@H]2C(=O)N[C@@H](CCCC[N+](C)(C)C)C(=O)N2[C@H]1c1ccc(O)cc1 | false
C=CCC(OC(C)=O)[C@@H]1[C@@H](N(Cc2ccc(-c3ccccc3)cc2)C(=O)Cc2ccc(F)cc2)c2cc(OCCCO)ccc2N1C(=O)Cc1ccc2ccccc2c1 (some centres not stated) | false

Q. hey, is composite z-score for this one >= -0.02? O=C1C2C=CC(C(O)C=Cc3ccc([N+](=O)[O-])cc3)N(Nc3ccccc3)C2C(=O)N1c1ccccc1 (configuration not stated)
A. true
